Origin of measurements: paper PMC10935252

Each entry below lists one item and its recorded pIC50 value.
Target: α-glucosidase from yeast
Assay: α-Glucosidase inhibition assay
Settings: substrate maltose 0.5 mM, pH 6.8, 37 °C; mean ± SD of three independent experiments; read-out: IC50 against α-glucosidase from yeast
Method: α-Glucosidase activity was assayed by the method reported, with minor modifications. […] The reaction mixture contained 150 μL of enzyme solution, 150 μL of inhibitor, and 150 μL of substrate (maltose). The substrate and α-glucosidase (Baker’s yeast) were purchased from Sigma-Aldrich Chemical (St. Louis, MO, USA). […] The absorption at 505 nm was measured immediately and taken as the relative rate for the hydrolysis of the substrate. […]
In textbook form, pIC50 equals minus log to base ten of the concentration in mol/L.

Recorded results for 3 compounds are shown here.
> print(dat)
                                   compound  measurement
1  C[C@]1(O)C[C@@H]2[C@@H](O1)[C@H](O)[C@H](O)CN2Cc1ccc(O)c(Cl)c1 [Compound 17]         5.31
2  COc1cc(CN2C[C@@H](O)[C@@H](O)[C@@H]3O[C@@](C)(O)C[C@H]32)ccc1O [Compound 22]         4.98
3  C[C@]1(O)C[C@@H]2[C@H](O1)[C@@H](O)[C@@H](O)CN2Cc1ccc(O)c(Br)c1 [Compound 29]         5.92

Next:
Task item: // lookup pIC50 | system=α-glucosidase from yeast | key= C[C@]1(O)C[C@@H]2[C@H](O1)[C@@H](O)[C@@H](O)CN2Cc1ccc(O)c(F)c1 [Compound 30]
Reply: 5.59
